The following molecules are listed with their measured growth values.
Test system: 786-0 renal
Experiment: NCI-60 one-dose screen, 48 h (100 = growth as untreated, 0 = no growth, -100 = all killed)
Conditions: 10 µM unless noted
About 83,000 compounds went through this panel and 20% of them were active in at least one assay; those are over-represented in the sample as a whole.

itemSmiles: CC(C)COC(=O)Cc1ccccc1
valueUnits: %
growth: 104
--
itemSmiles: C[C@]12C[C@H](c3ccoc3)OC(=O)[C@H]1CC[C@@]1(C)[C@@H]2[C@H]2C=C[C@]1(O)C(=O)O2
valueUnits: %
growth: 91.9
--
itemSmiles: O=S(=O)(F)c1cccc(Cl)c1C[P+](c1ccccc1)(c1ccccc1)c1ccccc1
valueUnits: %
growth: 104
--
itemSmiles: O=Cc1cn(Cc2ccccc2)c2ccccc12
valueUnits: %
growth: 87.6

Values were extracted from PubChem BioAssay (NCI).
